The measurements presented in this section are drawn from paper PMC8231094.

- tested.system: rabbit muscle actin (rabbit) (UniProt P68135)
- test.description: SPR; Biacore X100; rabbit muscle actin (10 ug/ml) covalently coupled to a CM5 chip by EDC/NHS, control lane without actin subtracted; formin fragments injected at 12.3 nM to 1 uM (1:3 serial dilution), 120 s injection, 600 s dissociation, 30 ul/min, 25 degrees; running buffer 10 mM HEPES pH 7.4, 150 mM NaCl, 3 mM EDTA, 10 mM MgCl2, 0.2 mM ADP, 0.5 mM DTT
measurement.name: Kd (nM)
Numeric only. Scale: nM

// Kd lookup, sequence = SYMBIOTIC FORMIN 1 (SYFO1) FH1FH2 domain (domain or fragment) , result: 54.9
